Assay: Pharmacokinetic study (PK) after single i.v. and i.p. administration
Assay type: in vivo, male CD-1 mice
Conditions: male, CD-1, mouse, in vivo, ip, 10 mg/kg, Cmax norm.
measured_metric: Cmax (ng/mL)

| compound | unit_info | result |
| --- | --- | --- |
| N=C(N)NCCC[C@@H]1NC(=O)[C@@H]2CSSC[C@H](NC(=O)[C@H](Cc3ccc4ccccc4c3)NC(=O)[C@H](CCCNC(=N)N)NC(=O)[C@H](CCCNC(=N)N)NC(=O)[C@H]3CCCN3C(=O)CNC1=O)C(=O)N[C@@H](Cc1ccc(O)cc1)C(=O)N[C@@H](CCCNC(N)=O)C(=O)N[C@@H](CCCCN)C(=O)N1CCC[C@@H]1C(=O)N1CCC[C@H]1C(=O)N[C@@H](Cc1ccc(O)cc1)C(=O)N[C@@H](CCCNC(=N)N)C(=O)N[C@@H](CCCNC(N)=O)C(=O)N2 [Ex. 51] | ng/mL | 316 |
